System: MRCKA
Details: concentration: 1 μM,replicates: in singlicate; n = 1;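 also: KINOMEscan kinase panel screen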
MEASURED PROPERTY: %Inh (%)
Lab book: enter the figure in %, no units written.

The molecule listed as C[C@H]1Oc2cc(cnc2N)-c2c(nn(C)c2C#N)CN(C)C(=O)c2ccc(F)cc21 shows %Inh equal to 0

The reported %Inh of the molecule Cc1n[nH]c2ccc(-c3cc(OC[C@@H](N)Cc4ccccc4)cnc3-c3ccoc3)cc12.O=C(O)C(F)(F)F.O=C(O)C(F)(F)F [GSK507358] was 28

The reported %Inh of the molecule Cl.Cl.NC[C@H](CC1CCCCC1)NC(=O)c1cc(Br)c(-c2ccnc3[nH]ccc23)s1 [GSK1581427] was 86

Noted for O=C(NCCCN1CCOC1=O)c1cnc(NCc2cc(Cl)ccc2Cl)nc1NC1CCCC1 : its %Inh reads 4

The measured %Inh associated with Cc1cc(C(=O)Nc2ccc(Oc3ccc4nc(NC(=O)C5CC5)cn4n3)cc2)nn1-c1ccccc1 reads 28

Per the records, this molecule ( C[C@@H](Oc1cc(-c2cnn(C3CCNCC3)c2)cnc1N)c1c(Cl)ccc(F)c1Cl ) has %Inh equal to 0

# %Inh (molecule: Cl.Oc1cc(-c2nc(-c3ccccc3)[nH]c2-c2ccncc2)ccc1Cl [SB-386023] ) is 0

For Cc1occc1-c1nc(N)c(OC[C@@H](N)Cc2c[nH]c3ccccc23)cc1-c1cc2c(C)n[nH]c2cn1 [GSK1660450] the molecule record lists %Inh as 78

Note to self: %Inh recorded for Cc1cc2cn[nH]c2cc1-c1cccc2c(N)c(C(N)=O)nnc12 was 24

Field %Inh (entry CC(C)Nc1cc(-c2ccc3c(N)n[nH]c3c2)nc(N)n1 [GSK2221681] ) reads 0

Item: Cc1ccc(-n2nc(C(C)(C)C)cc2NC(=O)Nc2ccc(OCCN3CCOCC3)c3ccccc23)cc1 [GW839464] | %Inh: 8

get_value(item= CN(C)CC(O)COc1ccc(Nc2nccc(-c3cnn4nc(N5CCOCC5)ccc34)n2)cc1 (stereo not shown) [GW767488] , readout=%Inh) returns 0

%Inh recorded for this molecule, CCN(CC)CCOc1ccc(Nc2ncc3cc(-c4c(Cl)cccc4Cl)c(=O)n(C)c3n2)cc1 [SB-601273] , is 83

The reported value for Nc1nc(Nc2ccccc2)cc(-c2ccc3c(N)n[nH]c3c2)n1 [GSK2225749] in terms of %Inh is 0

// recorded %Inh for CCN(CC)CCCCNc1ncc2cc(-c3c(Cl)cccc3Cl)c(NC(=O)NC(C)(C)C)nc2n1 : 0

%Inh reading for C=CC(=O)Nc1cc2c(Nc3ccc(F)c(Cl)c3)ncnc2cc1OCCCN1CCOCC1 [GW781483] : 0

CCn1c(-c2nonc2N)nc2c(C#CC(C)(C)O)nc(OCCN)cc21.Cl.Cl [GSK902056] yielded %Inh of 3

Record summary for C[C@@H]1CCN(C(=O)CC#N)C[C@@H]1N(C)c1ncnc2[nH]ccc12 : reported %Inh = 0

Recorded %Inh (molecule O=C(NCCNc1ccnc(NCc2ccc(F)cc2)n1)c1cc2ccccc2s1 [GSK1379944] ): 10

----------
Test system: MAP3K3
Settings: concentration: 1 μM,replicates: in singlicate; n = 1
Label Met when %Inh >= 40%; otherwise Not met.

Check this compound for %Inh at or above 40%: CCN(CC)CCOc1ccc(Nc2ncc3cc(-c4c(Cl)cccc4Cl)c(=O)n(C)c3n2)cc1 Met

State whether the measured %Inh reaches 40%, counting equality as reaching it, for O=C(NCCCN1CCOC1=O)c1cnc(NCc2cc(Cl)ccc2Cl)nc1NC1CCCC1 Met

Could you please find out whether Cc1cc2cn[nH]c2cc1-c1cccc2c(N)c(C(N)=O)nnc12 has %Inh that meets 40% or exceeds it? Met

I'd appreciate it if you could say whether Cc1cc(C(=O)Nc2ccc(Oc3ccc4nc(NC(=O)C5CC5)cn4n3)cc2)nn1-c1ccccc1 has %Inh at least equal to 40%. Not met

Check this compound for %Inh at or above 40%: C[C@H]1Oc2cc(cnc2N)-c2c(nn(C)c2C#N)CN(C)C(=O)c2ccc(F)cc21 Not met

State whether the measured %Inh reaches 40%, counting equality as reaching it, for Cc1ccc(-n2nc(C(C)(C)C)cc2NC(=O)Nc2ccc(OCCN3CCOCC3)c3ccccc23)cc1 Not met

Is the recorded value of %Inh equal to or greater than 40% for this compound? CCn1c(-c2nonc2N)nc2c(C#CC(C)(C)O)nc(OCCN)cc21.Cl.Cl Not met

Is %Inh at least 40%? Consider CNC(=O)c1ccccc1Sc1ccc2c(/C=C/c3ccccn3)n[nH]c2c1 Not met
